Each recorded value in this set is attributed to paper PMC9775191.

Tested on: G. duodenalis BRIS/91/HEPU/1279
Experiment: Primary Giardia screen at 10 µM (live-cell imaging, automated counting)
Type: cell-based, Giardia duodenalis
Details: 48 h, first singlicate assay
Items are presented alongside their recorded % Inhibition n=1 48h.
A number alone suffices; assume %.

// below: answered molecules
Cc1cccc(C)c1NC(=O)c1cc(-c2ccccc2)nc2c1cnn2Cc1cccnc1 [SN00776937] | 17.5
CN(C)CCCN1C(=O)C(O)=C(C(=O)c2cc(Cl)ccc2O)C1c1ccco1 (stereo not drawn) [SN00776642] | 14.6
CCc1noc(C2(NC(=O)c3cc(-c4ccccc4)n[nH]3)CCCCC2)n1 [SN00800487] | 0.0
O=S(=O)(NCCC1=CCCCC1)c1ccc(-c2cnc(C3CCCC3)o2)s1 [SN00795100] | 27.9
CCC(C)NC(=O)C1CCN(c2cnc(N3CCSCC3)nc2)CC1 (stereo not drawn) [SN00798903] | 12.6

So what does the record say about % Inhibition n=1 48h for O=C(Cn1c(-c2ncccn2)noc1=O)N1CCCCC1 [SN00781438] ?
1.7

So what does the record say about % Inhibition n=1 48h for Cc1nnc2sc(-c3ccc(CNC(=O)c4cccc(Br)c4)cc3)nn12 [SN00794033] ?
41.7

So what does the record say about % Inhibition n=1 48h for Cc1ccccc1C(=O)N1CCN(C(=O)c2[nH]nc3ccccc23)CC1 [SN00770261] ?
25.4

So what does the record say about % Inhibition n=1 48h for COc1ccccc1OC(C)C(=O)N1N=C2CCCCC2C1(O)C(F)(F)F (stereo not drawn) [SN00786959] ?
13.1
